Could you please report measured GI50 for the items listed next?
tested on: TK-10; assay: NCI tumour cell line growth inhibition, 48 h
The source made the active and inactive calls. No stated cut-off is given here; in the data, active = GI50 up to about 1.1 µM and inactive = higher.

Please look at this compound and report its GI50: C=CC[C@@]1(C#N)C[C@H](C[C@]2(C#N)C[C@H](CCl)OC(C)(C)O2)OC(C)(C)O1
> 100 µM (inactive)

Please look at this compound and report its GI50: CCOC(=O)c1cc(=O)oc2c1N(C)c1ncccc1N2
> 100 µM (inactive)

Please look at this compound and report its GI50: C=C1c2nc3ccccc3n2C=C(c2ccccc2)N1c1ccc([N+](=O)[O-])cc1
4.32 µM (inactive)

Please look at this compound and report its GI50: Cc1c(N2C(=O)C(Cl)C2c2ccc(Cl)cc2)c(=O)n(-c2ccccc2)n1C (centres undefined)
> 100 µM (inactive)

Please look at this compound and report its GI50: CC(=O)Nc1ccc2c3c(cc(O)c2c1)N(C(=O)CCCC(=O)Nc1ccc2c4c(cc(O)c2c1)N(C(=O)OC(C)(C)C)CC4CCl)CC3CCl (centres undefined)
7.6 µM (inactive)

Please look at this compound and report its GI50: O=C1COc2cc3c(cc2N1)SCC(=O)N3
> 100 µM (inactive)

Please look at this compound and report its GI50: CCN(CC)CCOc1ccc(N2Cc3ccccc3C2=O)cc1
> 10 µM (inactive)

Please look at this compound and report its GI50: Cn1c(-c2ccc(-c3cc(-c4cccs4)c(-c4cccs4)n3C)cc2)cc(-c2cccs2)c1-c1cccs1
> 100 µM (inactive)

Please look at this compound and report its GI50: CC(=O)Nc1ccc(C(=O)N2N=C(C)/C(=C/c3ccccc3O)C2=O)cc1
> 100 µM (inactive)

* * *

tested on: CAKI-1; test: NCI tumour cell line growth inhibition, 48 h
Active and inactive are the calls of the source. No stated cut-off is given here; in the data, active = GI50 up to about 1.1 µM and inactive = higher.
Could you please report measured GI50 for the items listed next?

Please look at this compound and report its GI50: CCc1c(-c2ccccc2)[nH]c2ccccc2c1=O
19.8 µM (inactive)

Please look at this compound and report its GI50: Nc1ncc2c(n1)-c1ccccc1OC2N1CCCC1 (stereo unspecified)
> 100 µM (inactive)

Please look at this compound and report its GI50: CC(=O)/N=C1/N(/C=C2\C(=O)Oc3ccccc3C2=O)C(=O)/C(=C/c2ccc(NC(C)=O)cc2)N1C
> 100 µM (inactive)

Please look at this compound and report its GI50: CN(C)c1ccc(-c2c(C#N)c(S)n(NS(=O)(=O)c3ccccc3)c(=O)c2C#N)cc1
23.8 µM (inactive)

Please look at this compound and report its GI50: c1ccc(B2OCC(C3OB(c4ccccc4)OC4COB(c5ccccc5)OC43)O2)cc1 (stereo unspecified)
> 100 µM (inactive)

Please look at this compound and report its GI50: NC(Cc1ccccc1)c1nccs1 (stereo unspecified)
> 100 µM (inactive)

Please look at this compound and report its GI50: CCCCCCCCCCCOc1ccc(C(=O)C(=O)c2ccc(OCCCCCCCCCCC)c(OCCCCCCCCCCC)c2)cc1OCCCCCCCCCCC
> 100 µM (inactive)

Please look at this compound and report its GI50: O=C(Nc1cccc2ccccc12)Nn1cnnc1
> 100 µM (inactive)

Please look at this compound and report its GI50: Nc1ccc2c(c1)NC(=O)[C@@H]1CCCN1C2=O
> 100 µM (inactive)

Please look at this compound and report its GI50: CN(C)/N=N/c1ccc([N+](=O)[O-])cc1C(N)=O
> 100 µM (inactive)

Please look at this compound and report its GI50: O=[N+]([O-])c1cc(I)cc(/C=N/NS(=O)(=O)c2ccc(Cl)cc2)c1O
22.3 µM (inactive)

Please look at this compound and report its GI50: O=c1c2ccccc2nc(N/N=C/c2ccc(Cl)cc2)n1-c1ccccc1
> 100 µM (inactive)

Please look at this compound and report its GI50: NC(=S)N/N=C1/CCCC2CCCC[C@@H]12 (stereo partly specified)
> 100 µM (inactive)

Please look at this compound and report its GI50: CC1(C)OCC(C2CCC3(C)C4=CCC5C(C)(C)C(O)CCC5(C)C4CCC23C)CC(O)C1O (stereo unspecified)
14 µM (inactive)

Please look at this compound and report its GI50: CCOC(=O)c1c(O)nc(O)c(CC)c1C
> 100 µM (inactive)

Please look at this compound and report its GI50: CCOC(=O)NN(C(=O)OCC)C(=C(C1=CCCCC1)N1CCOCC1)N(NC(=O)OCC)C(=O)OCC
> 100 µM (inactive)

Please look at this compound and report its GI50: CC(=O)N1N=C(c2ccc3ccccc3c2O)CC1c1ccc(Cl)cc1Cl (stereo unspecified)
22.6 µM (inactive)

Please look at this compound and report its GI50: COc1cc(/C=C2\CCC/C(=C\c3ccc(O)c(OC)c3)C2=O)ccc1O
2.81 µM (inactive)

Please look at this compound and report its GI50: CNC1=C(C)C(=O)C(C)=C(C(C)(C)CC(=O)n2cc(F)c(=O)[nH]c2=O)C1=O
22.8 µM (inactive)

Please look at this compound and report its GI50: O=C(c1ccco1)C1CC(c2ccc3ccccc3c2O)=NN1c1ccc([N+](=O)[O-])cc1[N+](=O)[O-] (stereo unspecified)
33.5 µM (inactive)

Please look at this compound and report its GI50: OCc1cn(C(c2ccccc2)(c2ccccc2)c2ccccc2)cn1
91.6 µM (inactive)
